Listing of pKi toward Sodium-dependent serotonin transporter (Rattus norvegicus), each taken from a published source.
pKi: −log10 of the molar value.
Classify as follows. Reported pKi greater than or equal to 7: true (1). Reported pKi below: false (0).

{"columns": ["compound", "category-label"],
 "data": [
  ["COc1ccc(C2CN(C)Cc3cc(OCCCN4CCC(F)(F)CC4)ccc32)cc1 (stereo not drawn)", "true (1)"],
  ["NC(=O)c1ccc(F)c2c1C[C@@H](N(CCCc1c[nH]c3ccc(F)cc13)CC1CC1)CO2", "true (1)"],
  ["COc1ccc(-c2c(=O)n(CCCCN3CCCC(c4c[nH]c5ccccc45)C3)c(=O)n3ccccc23)cc1 (stereo not drawn)", "true (1)"],
  ["Cc1[nH]c2ccccc2c1C1CCN(CCCCn2c(=O)c(-c3ccc(Cl)cc3)c3n(c2=O)CCCC3)CC1", "false (0)"],
  ["CCN(CC)c1ccc2c(-c3ccc(S(=O)(=O)NCCCCCC(=O)NCCNCCCC4(c5ccccc5)OC(C)(C)c5ccccc54)cc3S(=O)(=O)[O-])c3ccc(=[N+](CC)CC)cc-3oc2c1 (stereo not drawn)", "false (0)"],
  ["N#Cc1ccc2[nH]cc([C@H]3CC[C@@H](N4CCN(c5cccc6nccnc56)CC4)CC3)c2c1", "true (1)"],
  ["CSc1ccc(C2CN(C)Cc3cc(Oc4nc(CN5CCOCC5)cs4)ccc32)cc1 (stereo not drawn)", "true (1)"],
  ["CC1CN(c2ccc3cc([N+](=O)[O-])ccc3n2)CCN1 (stereo not drawn)", "true (1)"],
  ["NC(=O)c1ccc(F)c2c1CC(N(CCCCc1c[nH]c3ccc(F)cc13)C1CCC1)CO2 (racemic)", "true (1)"],
  ["O=[N+]([O-])c1ccc2nc(N3CCNCC3CO)ccc2c1 (stereo not drawn)", "true (1)"],
  ["FC(F)(F)c1ccccc1OC(c1cccc(I)c1)C1CNCCO1 (racemic)", "false (0)"],
  ["C[C@@H]1CN(CCCN(c2ccc(F)cc2)c2ccc(F)cc2)C[C@@H](C)N1CCCc1ccccc1", "false (0)"],
  ["CN(C)CCC(Oc1ccc(C(F)(F)F)cc1)c1ccc(C#CCCN2CCCCC2)cc1 (stereo not drawn)", "true (1)"],
  ["Fc1cc(OCCNCCCc2c[nH]c3ccc(F)cc23)c2occc2c1", "true (1)"],
  ["CCOc1ccccc1O[C@@H](c1ccc(I)cc1)[C@@H]1CNCCO1", "false (0)"]
]}

* * *

Several reports have described Ki for Sodium-dependent serotonin transporter (Rattus norvegicus, UniProt P31652); a selection of those results is presented here.
measured-parameter: Ki (nM)

{"columns": ["molecule", "system-under-test", "unit-name", "lt-gt-eq", "reported"],
 "data": [
  ["O=C(Nc1cccnc1)Nc1ccc2ccccc2c1", "Sodium-dependent serotonin transporter (Rattus norvegicus, UniProt P31652)", "nM", ">", 10000],
  ["Cc1ccc(-c2c(=O)n(CCCCN3CCC(c4c[nH]c5ccc(F)cc45)CC3)c(=O)n3ccccc23)cc1", "Sodium-dependent serotonin transporter (Rattus norvegicus, UniProt P31652)", "nM", "=", 27.4],
  ["O=c1c(-c2ccccc2Cl)c2ccccn2c(=O)n1CCCCN1CC=C(c2c[nH]c3ccc(Cl)cc23)CC1", "Sodium-dependent serotonin transporter (Rattus norvegicus, UniProt P31652)", "nM", "=", 774],
  ["OC(CCN1CCN(c2cccc3ncccc23)CC1)c1csc2ccccc12 (centres undefined)", "Sodium-dependent serotonin transporter (Rattus norvegicus, UniProt P31652)", "nM", "=", 32.5],
  ["O=c1c(-c2ccc(F)cc2)c2ccccn2c(=O)n1CCCCN1CC=C(c2c[nH]c3ccc(F)cc23)CC1", "Sodium-dependent serotonin transporter (Rattus norvegicus, UniProt P31652)", "nM", "=", 11.3],
  ["O=C1COc2ccc(OCC3CCN(CCOc4cccc5ncccc45)C3)cc2N1 (centres undefined)", "Sodium-dependent serotonin transporter (Rattus norvegicus, UniProt P31652)", "nM", "=", 50.1],
  ["Fc1ccc(OC(c2cccc(F)c2)C2CCNCC2)cc1 (centres undefined)", "Sodium-dependent serotonin transporter (Rattus norvegicus, UniProt P31652)", "nM", "=", 5.8],
  ["Oc1ccccc1C1CN2CCCC2c2cc(OCCCN3CCCCC3)ccc21 (racemic)", "Sodium-dependent serotonin transporter (Rattus norvegicus, UniProt P31652)", "nM", "=", 20.7],
  ["O=c1c(-c2ccccc2)c2ccccn2c(=O)n1CCCCN1CCCC(c2c[nH]c3ccc(F)cc23)C1 (centres undefined)", "Sodium-dependent serotonin transporter (Rattus norvegicus, UniProt P31652)", "nM", "=", 8]
]}
